- ASSAYED_TARGET: Human M4 (Homo sapiens, UniProt P08173)
- Construct: expressed in transfected cells; host or cells: CHO-K1 (ATCC), co-transfected with chimeric G protein Gqi5
- Sequence (P08173 whole entry): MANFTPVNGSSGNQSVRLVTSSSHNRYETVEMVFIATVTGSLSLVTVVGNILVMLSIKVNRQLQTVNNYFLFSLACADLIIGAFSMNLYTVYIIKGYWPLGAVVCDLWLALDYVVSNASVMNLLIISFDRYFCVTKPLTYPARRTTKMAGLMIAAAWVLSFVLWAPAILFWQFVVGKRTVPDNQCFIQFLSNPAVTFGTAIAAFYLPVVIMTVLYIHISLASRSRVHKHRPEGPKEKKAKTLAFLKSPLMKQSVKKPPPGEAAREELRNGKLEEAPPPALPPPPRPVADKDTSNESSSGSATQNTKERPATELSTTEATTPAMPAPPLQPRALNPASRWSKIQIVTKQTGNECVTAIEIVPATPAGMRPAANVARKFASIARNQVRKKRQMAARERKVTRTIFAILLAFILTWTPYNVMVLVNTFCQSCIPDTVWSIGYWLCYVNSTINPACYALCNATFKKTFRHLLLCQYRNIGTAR
- PROTOCOL_DETAILS: mAChR M4 cell-based functional assay (calcium flux, antagonism of EC80 acetylcholine response)
- RECORDED_CONDITIONS: M4/Gqi5/CHO-K1 cells; decrease of response elicited by EC80 acetylcholine
pIC50: −log10 of the molar value.
METRIC: pIC50

Example results:
[[record]]
structure_smiles_string = "Cc1cc(N[C@H]2C[C@@H]3CN(CC4CCOCC4)C[C@@H]3C2)nnc1-c1cc(F)ccc1Cl"
numeric_value = 8.63

[[record]]
structure_smiles_string = "[2H]C([2H])(C1CCOCC1)N1C[C@H]2C[C@H](Nc3nnc(N4CCC(F)(F)CC4)cc3C3CCC3)C[C@H]2C1"
numeric_value = 7.22

[[record]]
structure_smiles_string = "COc1ccc(F)cc1-c1cc(C(F)F)c(N[C@H]2C[C@@H]3CN(CC4CCOCC4)C[C@@H]3C2)nn1"
numeric_value = 7.96

[[record]]
structure_smiles_string = "[2H]C([2H])(C1CCOCC1)N1C[C@H]2C[C@H](Nc3nnc(-c4cc(F)ccc4C)cc3C3CC3)C[C@H]2C1"
numeric_value = 6.58


A: [2H]C([2H])(C1CCOCC1)N1C[C@H]2C[C@H](Nc3nnc(-c4cc(F)ccc4C)cc3C3CCC3)C[C@H]2C1
B: COc1cc(-c2cccc(F)c2)nnc1N[C@H]1C[C@@H]2CN(CC3CCOCC3)C[C@@H]2C1
Problem: Among A and B , which shows a numerically higher pIC50 result? Bench note: the answer is the label of the chosen record.
Result: B
(B: 7.97, A: 7.46)
